- assay_remarks: Plasma binding of 5-MIAA
- Format: in vitro ADME
- test_context: human plasma
experimental_readout: recovery (%)
Quick note: give the figure in %, leave out the unit.

Which recovery is listed for CC(=O)CC(c1ccccc1)c1c(O)c2ccccc2oc1=O (stereo not shown) [Warfarin, reference compound] ?
78.1

====

- assay_remarks: Metabolic stability in Hμrel human hepatocyte co-culture
- test_context: human
experimental_readout: half-life at 1 µM (h)
Numbers only here, please. The scale is h.

Which value of half-life at 1 µM has been reported for COc1ccc2[nH]cc(CCO)c2c1 in the records?
2.37

====

- assay_remarks: In vitro binding of 5-MeO-DMT to plasma proteins, high throughput dialysis
- Format: in vitro ADME
- test_context: human, 1 μM, 4-hour dialysis, read-out: Free Fraction in human plasma
experimental_readout: fraction unbound at 4 h, 1 μM
Output spec: single numeric token, no unit.

For COc1ccc2[nH]cc(CCN(C)C)c2c1 , what is its reported fraction unbound at 4 h, 1 μM?
0.773

====

- assay_remarks: Metabolic stability in Hμrel human hepatocyte co-culture
- test_context: human
experimental_readout: hepatocyte CLint at 1 µM (µL/min/1e6 cells)
Give the value in µL/min/1e6 cells but do not write µL/min/1e6 cells after it.

Can you look up the measured hepatocyte CLint at 1 µM of COc1ccc2[nH]cc(CCO)c2c1 for me?
16.2

====

- assay_remarks: LC-MS/MS of 5-MeO-DMT, bufotenine and 5-MIAA in urine, serum and breastmilk of lactating PPD patient; infant exposure estimates
- test_context: female, human, breast milk, inhaled
experimental_readout: concentration at 2.5 h (ng/mL)
Please state the figure in ng/mL; there is no need to write the unit.

Query: concentration at 2.5 h; subject: COc1ccc2[nH]cc(CCN(C)C)c2c1
0.561

====

- assay_remarks: Plasma binding of 5-MIAA
- Type: in vitro ADME
- test_context: human, plasma, three replicates, read-out: Mean fu
experimental_readout: fraction unbound
Provide a numeric answer; units are not to be included.

For CC(=O)CC(c1ccccc1)c1c(O)c2ccccc2oc1=O (stereo not shown) [Warfarin, reference compound] , what is its reported fraction unbound?
0.0377

====

- assay_remarks: Plasma binding of 5-MIAA
- Assay type: in vitro ADME
- test_context: human, plasma, read-out: Unbound fraction (fu), Replicate 2
experimental_readout: fraction unbound
The answer should be written as a number, with no unit following it.

What value of fraction unbound has been recorded for this entry: CC(=O)CC(c1ccccc1)c1c(O)c2ccccc2oc1=O (stereo not shown) [Warfarin, reference compound]
0.0356

====

- assay_remarks: LC-MS/MS of 5-MeO-DMT, bufotenine and 5-MIAA in urine, serum and breastmilk of lactating PPD patient; infant exposure estimates
- test_context: female, human, breast milk, inhaled
experimental_readout: concentration at 8.5 h

I am curious: what concentration at 8.5 h value has been reported for COc1ccc2[nH]cc(CCN(C)C)c2c1 [5-MeO-DMT] ?
0.0421 ng/mL

====

- assay_remarks: LC-MS/MS of 5-MeO-DMT, bufotenine and 5-MIAA in urine, serum and breastmilk of lactating PPD patient; infant exposure estimates
- test_context: female, human, breast milk, inhaled
experimental_readout: concentration at 1 h
Provide the measurement as a number trailed by its unit.

Which concentration at 1 h reading was recorded for the compound COc1ccc2[nH]cc(CCN(C)C)c2c1 ?
2.17 ng/mL

====

- assay_remarks: Pharmacokinetics of 5-MeO-DMT and bufotenine after single inhaled dose
- Type: in vivo, human
- test_context: human, plasma, inhaled or intranasal; 6 mg group, inhalation, n=8; read-out: Median Cmax
experimental_readout: Cmax (ng/mL)
Express it in ng/mL; write the number only.

Name the reported Cmax value associated with the compound COc1ccc2[nH]cc(CCN(C)C)c2c1
11.8

====

- assay_remarks: Pharmacokinetics of 5-MeO-DMT and bufotenine after single inhaled dose
- Format: in vivo, human
- test_context: human, plasma, inhaled or intranasal; 12 mg group, inhalation, n=8; read-out: Median Cmax
- Experimental: Blood samples were obtained at 1; 2; 4; 7; 10; 15; 20; 30; 45 min and 1; 1.5; 2; 3; 4 hours after administration. PK parameters were generated by algebraic analysis of the concentration versus time plots for each individual. The analysis was carried out using the software Phoenix WinNonlin 6.3.
experimental_readout: Cmax (ng/mL)
Form entry: value (ng/mL) — number only.

Can you share its Cmax? I mean this compound: COc1ccc2[nH]cc(CCN(C)C)c2c1
22.9

====

- assay_target: 5-HT1A receptors (Homo sapiens)
- Sequence (P08908 whole entry): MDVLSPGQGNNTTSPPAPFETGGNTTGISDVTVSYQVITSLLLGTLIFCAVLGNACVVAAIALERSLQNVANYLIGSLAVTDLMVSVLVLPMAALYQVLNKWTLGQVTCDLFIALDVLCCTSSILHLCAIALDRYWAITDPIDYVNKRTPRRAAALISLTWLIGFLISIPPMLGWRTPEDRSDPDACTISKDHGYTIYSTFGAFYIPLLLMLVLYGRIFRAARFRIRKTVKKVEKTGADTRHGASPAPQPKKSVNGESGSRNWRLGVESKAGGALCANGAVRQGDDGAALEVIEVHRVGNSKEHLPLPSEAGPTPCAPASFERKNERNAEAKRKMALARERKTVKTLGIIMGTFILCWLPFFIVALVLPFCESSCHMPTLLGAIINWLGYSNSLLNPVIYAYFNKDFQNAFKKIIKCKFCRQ
experimental_readout: pKi
pKi (log units): -log10 of the concentration in mol/L.

Record CN(C)CCc1c[nH]c2cccc(O)c12 : what is its pKi with 5-HT1A receptors (Homo sapiens)?
7.32

====

- assay_remarks: Pharmacokinetics of 5-MeO-DMT and bufotenine after single inhaled dose
- Type: in vivo, human
- test_context: human, plasma, inhaled or intranasal; 18 mg group, inhalation, n=8; read-out: Median Cmax
experimental_readout: Cmax (ng/mL)
# value in ng/mL; strip the unit string

What value of measured Cmax is listed for COc1ccc2[nH]cc(CCN(C)C)c2c1 ?
38.5

====

- assay_remarks: In vitro binding of 5-MeO-DMT to plasma proteins, high throughput dialysis
- Assay type: in vitro ADME
- test_context: human plasma
experimental_readout: fraction unbound at 4 h

For the compound COc1ccc2[nH]cc(CCN(C)C)c2c1 [5-MeO-DMT] , what fraction unbound at 4 h is on record?
0.77 to 0.87

Values compiled from patent US20240108601A1.
